Classification field: y = CO2 permeability at or over 30 Barrer; n = CO2 permeability under 30 Barrer.

// known answers, use as guide
Item *Oc1ccc(S(=O)(=O)c2ccc(Oc3c(C)cc(-c4cc(C)c(*)c(C)c4)cc3C)cc2)cc1 (repeat unit) with CO2 permeability of 30 Barrer or above?
y

Item *C(=C(*)c1ccc2c(c1)C(C)(C)c1cc([Si](C)(C)C)ccc1-2)c1ccccc1 (repeat unit) with CO2 permeability of 30 Barrer or above?
y

Item *C(=C(*)c1ccc2c(c1)C(C)(C)CC2(C)C)c1ccc(C)cc1 (repeat unit) with CO2 permeability of 30 Barrer or above?
y

Item *c1cccc(Oc2cccc(-n3c(=O)c4cc5c(=O)n(*)c(=O)c5cc4c3=O)c2)c1 (repeat unit) with CO2 permeability of 30 Barrer or above?
n

Item *Oc1ccc(C(C)(C)c2ccc(OC(=O)c3ccc(C(*)=O)cc3)cc2)cc1 (repeat unit) with CO2 permeability of 30 Barrer or above?
n

Item *Oc1ccc(C(=O)c2ccccc2-c2ccccc2C(=O)c2ccc(Oc3c(C)cc(-c4cc(C)c(*)c(C)c4)cc3C)cc2)cc1 (repeat unit) with CO2 permeability of 30 Barrer or above?
n

Continuing:
Item *Oc1ccc(S(=O)(=O)c2ccc(Oc3ccc(C(C)(C)c4ccc(*)cc4)cc3CN)cc2)cc1 (repeat unit) with CO2 permeability of 30 Barrer or above?
n

Item *CC(*)C(=O)OC (repeat unit) with CO2 permeability of 30 Barrer or above?
n

Item *CC(*)(C)C(=O)OCCOCC (repeat unit) with CO2 permeability of 30 Barrer or above?
n

Item *c1ccc2c(-c3c(O)ccc4cc(N5C(=O)c6ccc(C(=O)c7ccc8c(c7)C(=O)N(*)C8=O)cc6C5=O)ccc34)c(O)ccc2c1 (repeat unit) with CO2 permeability of 30 Barrer or above?
n

Provenance of the data: a polymer gas permeability compilation
